Tm values, listed per item
# test_description: melting temperature; fluorescence melt of hairpins on a sequencing array, two-state fit, raised by 9.35 °C to match UV melts
# measurement_setup: sodium 0.088 M
readout_name: Tm

residue_sequence="GCGACTATTCGC ((((....))))" readout_name=Tm obs_value="47.4 °C"
residue_sequence="GAGGGTCCGAAAGGACTC (((..(((....))))))" readout_name=Tm obs_value="41.3 °C"
residue_sequence="GATCAATAGGTTGATC ((((((....))))))" readout_name=Tm obs_value="45.1 °C"
residue_sequence="GGCCTGCCGAAAGGCGCC (((..(((....))))))" readout_name=Tm obs_value="49.4 °C"
residue_sequence="GTCCTCGAAAGAGCGGAC ((((((....)))..)))" readout_name=Tm obs_value="36.1 °C"
residue_sequence="GGACTCGAAAGAGAGTCC ((((((....)))..)))" readout_name=Tm obs_value="54.5 °C"
residue_sequence="GATCGGAGTACCGATC ((((((....))))))" readout_name=Tm obs_value="57.5 °C"
residue_sequence="GTGTCAGGAAACTGGTAC ((..(((....)))..))" readout_name=Tm obs_value="31.8 °C"
residue_sequence="AACCAGAAATGGTT (((((....)))))" readout_name=Tm obs_value="40.2 °C"
residue_sequence="GCGTAGCGAAAGCAGCGC (((..((....))..)))" readout_name=Tm obs_value="65.4 °C"
residue_sequence="GCATGGCGAAAGCCTAGC ((..(((....)))..))" readout_name=Tm obs_value="52.1 °C"
residue_sequence="GAACACGAAAGTGACTTC ((((((....)))..)))" readout_name=Tm obs_value="35.4 °C"
residue_sequence="GCCCTGCGAAAGCCTGGC (((..((....))..)))" readout_name=Tm obs_value="45.5 °C"
residue_sequence="GAGTAGCGAAAGCTCTC (((.(((....))))))" readout_name=Tm obs_value="46.2 °C"
residue_sequence="GATCAGTGCCCTGATC ((((((....))))))" readout_name=Tm obs_value="49.9 °C"

---

# test_description: melting temperature; fluorescence melt of hairpins on a sequencing array, two-state fit, raised by 9.35 °C to match UV melts
# measurement_setup: sodium 0.088 M
Tm values, listed per item
readout_name: Tm (°C)

residue_sequence="GATCTTGACCAAGATC ((((((....))))))" obs_value=49.3
residue_sequence="GTTGATGGAAACACCAAC ((((.((....)).))))" obs_value=37
residue_sequence="GGGTCCGGAAACGGGCTC (.(.(((....))).).)" obs_value=50.5
residue_sequence="GTGCTCGAAAGAGAACAC ((((((....)))..)))" obs_value=44.5
residue_sequence="GCGCTGCGAAAGCCGTGC ((.(.((....)).).))" obs_value=51.9
residue_sequence="CGGCCCGGAAACGGTCCG (((.(((....))).)))" obs_value=55.3
residue_sequence="GATGGGCGAAAGCCTATC (((.(((....))).)))" obs_value=53.9
residue_sequence="GCATGGCGAAAGCCCCGC ((..(((....)))..))" obs_value=29.6
residue_sequence="GGTCCACGAAAGTGAACC (((.(((....))).)))" obs_value=51.3
residue_sequence="GTGGCAGGAAACTGTCGC (.(.(((....))).).)" obs_value=45.7
residue_sequence="GCTGAGCGAAAGCCTAGC (((..((....))..)))" obs_value=48.4
residue_sequence="GCAAGACGAAAGTCTGC (((.(((....))))))" obs_value=57.7
residue_sequence="GGTCTCGAAAGAGCAACC ((((((....)))..)))" obs_value=34.5
residue_sequence="GTTAAAACGAAAGTTAAC (((..(((....))))))" obs_value=26.3
residue_sequence="GCGAATCGAAAGATACGC (((.(((....))).)))" obs_value=55.5
residue_sequence="GTGCCACGAAAGTGCAC (((.(((....))))))" obs_value=58.5
residue_sequence="GCGAAGGCGAAAGCCCGC (((..(((....))))))" obs_value=59.5
residue_sequence="GGAGTCGCGAAAGCGTCC (((..(((....))))))" obs_value=34.1
residue_sequence="GGACTTGAAAAAGTCC ((((((....))))))" obs_value=58.2
residue_sequence="GCTTAGCGAAAGCCTAGC (((..((....))..)))" obs_value=37.8
residue_sequence="GATCCTCCCCAGGATC ((((((....))))))" obs_value=50.4
residue_sequence="GCTTCTACGAAAGTAAGC (((..(((....))))))" obs_value=33.1
residue_sequence="GATGAGCGAAAGCTTATC (((.(((....))).)))" obs_value=49.1
residue_sequence="GCAAGGCGAAAGCCAAGC ((..(((....)))..))" obs_value=50.1
residue_sequence="GATCTCATAAGAGATC ((((((....))))))" obs_value=52.3
residue_sequence="GTTGGAGCGAAAGCTAAC (((..(((....))))))" obs_value=36.9
residue_sequence="GTGTTTGGAAACAAATAC ((.((((....)))).))" obs_value=41.2
residue_sequence="GGTATGGCGAAAGCCACC (((..(((....))))))" obs_value=38.9
residue_sequence="GCCTAAGAAATTAGGC ((((((....))))))" obs_value=52.5
residue_sequence="GTAATCGAAAGATACTAC ((((((....)))..)))" obs_value=31.4
residue_sequence="GATCTCTCTGGAGATC ((((((....))))))" obs_value=54.8
residue_sequence="GCATCCGAAAGGACATGC ((((((....)))..)))" obs_value=43.3
residue_sequence="GGGTAAGGAAACTTGCCC (((.(((....))).)))" obs_value=50.5
residue_sequence="GATCTTGACTAAGATC ((((((....))))))" obs_value=49

---

# test_description: folding enthalpy; higher = less favourable; fluorescence melt of hairpins on a sequencing array, two-state fit
# measurement_setup: sodium 0.088 M
Parameter threshold = -20 kcal/mol. Response is criterion met when folding enthalpy meets or exceeds it, else criterion not met.

residue_sequence="GGAATAGGAAACTGTTCC ((((.((....)).))))" label="criterion not met"
residue_sequence="GCCCGGCGAAAGCGAGGC (((..((....))..)))" label="criterion met"
residue_sequence="GCACATTCGAAAGAATGC (((..(((....))))))" label="criterion met"
residue_sequence="GCGGTGCGAAAGCAAGGC ((..(((....)))..))" label="criterion met"
residue_sequence="GAGGCGGGAAACCACCTC ((((.((....)).))))" label="criterion not met"
residue_sequence="GCGAACGGAAACGTCCGC (((.(((....))).)))" label="criterion not met"
residue_sequence="GATTAGGGAAACTTAATC (((((.(....).)))))" label="criterion met"
residue_sequence="GCGTTTCGAAAGAAGCGC (((.(((....))).)))" label="criterion not met"
residue_sequence="GCGACGCGAAAGCATGGC ((.(.((....)).).))" label="criterion met"
residue_sequence="GATCAAGTCTTTGATC ((((((....))))))" label="criterion not met"
residue_sequence="GATCCAAGAATGGATC ((((((....))))))" label="criterion not met"
residue_sequence="GATCTCACCGGAGATC ((((((....))))))" label="criterion not met"
residue_sequence="GGTATCGAAAGATTTACC ((((((....)))..)))" label="criterion not met"
residue_sequence="GAGTTTGAAAAAACTC ((((((....))))))" label="criterion not met"
residue_sequence="GACTAGGCGAAAGCCGTC (((..(((....))))))" label="criterion met"
residue_sequence="GATAAGGGAAACCCTATC ((((.((....)).))))" label="criterion met"
residue_sequence="GAGTGGGGAAACCCACTC (((((((....)))))))" label="criterion not met"
residue_sequence="CAAACCGAAAGGCTTG (((.((....)).)))" label="criterion not met"
residue_sequence="GGATGTGGAAACGTATCC ((((..(....)..))))" label="criterion not met"
residue_sequence="GGATATTCGAAAGAATCC (((..(((....))))))" label="criterion met"
residue_sequence="GTCTTTGGAAACAAAGGC (.(((((....))))).)" label="criterion not met"
residue_sequence="GTCATGGGAAACCACGAC (((.(((....))).)))" label="criterion not met"
residue_sequence="GTTCTCGAAAGAGATAAC ((((((....)))..)))" label="criterion met"
residue_sequence="GTACGCGGAAACGTGTAC ((((.((....)).))))" label="criterion not met"
residue_sequence="GCGAAGCGAAAGCATGGC ((.(.((....)).).))" label="criterion met"
residue_sequence="GTCCACGGAAACGTGAAC ((.((((....)))).))" label="criterion met"
residue_sequence="GTCAACGGAAACGTTGAC (((((((....)))))))" label="criterion not met"
residue_sequence="GATTTCCGAAAGGAATC (((.(((....))))))" label="criterion met"
residue_sequence="GTGTACGAAAGTACCAC ((((((....))).)))" label="criterion met"
residue_sequence="GTGCGCTCGAAAGAGCAC (((..(((....))))))" label="criterion met"
residue_sequence="GGTGTACGAAAGTAACC (((.(((....))))))" label="criterion not met"
residue_sequence="GTCTTCGAAAGAAGAC ((((((....))))))" label="criterion not met"
residue_sequence="GGATCTGGAAACAGATTC (.(((((....))))).)" label="criterion not met"
residue_sequence="GTTCACGAAAGTGTAAC ((((((....))).)))" label="criterion met"
residue_sequence="GCGGAGGTCCGC ((((....))))" label="criterion not met"
